Reference source for all entries: PubChem BioAssay (EPA / NIEHS)

assay_method_text: CCTE_Shafer_MEA_dev_per_burst_interspike_interval: CCTE's Neural Network Formation Assay for Burst Interspike Interval, Shafer Lab (AID 2284044);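 also: mean spike spacing inside bursts as AUC over recordings on days 5 7 9 12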
Activity calls are given as the source filed them. The calls were made as follows: active = hit-call score of the fitted dose curve at least 0.9, where 1 is the maximum; inactive = score below 0.9.
Your response should consist of one outcome taken from Yes for active, No for inactive

OCC(O)CO	No
COC(=O)[C@H]1[C@H]2C[C@@H]3c4[nH]c5cc(OC)ccc5c4CCN3C[C@H]2C[C@@H](OC(=O)c2cc(OC)c(OC)c(OC)c2)[C@@H]1OC	Yes
CC(=O)CC(c1ccccc1)c1c(O)c2ccccc2oc1=O (centres undefined)	No

Request: Per the assay record, what outcome was assigned to `O=C1NC(=O)C(c2ccccc2)(c2ccccc2)N1` ?
Response: No
